# Lookup of reported cytotoxicity at 70.5 h keyed by entry
Experiment: Human HepG2 cell viability assay in 384 well format
Format: toxicity, cell-based
Design: dose 125 nL, time 70.5 hour; concentration not given beside the values
Details: HepG2 cells, read-out: Inhibition

# COMPOUND, cytotoxicity at 70.5 h [%]
data = [
    ("N#Cc1cccnc1NCCNC(=O)N1CCCC(N2CCCC2)C1 (stereo unspecified)", 10.7),
    ("Cc1noc(C)c1CNC1CCN(c2ccccc2OC(F)F)C1 (stereo unspecified)", -3.18),
    ("N#Cc1ccccc1CN1CCC(c2nccn2CC(N)=O)CC1", -4.95),
    ("Cc1ccc2[nH]c(C3CCN(CC(N)=O)CC3)nc2c1", 9.74),
    ("CC(Cn1cccn1)NCc1nc(-c2ccccn2)no1 (stereo unspecified)", -11.1),
    ("COCC(=O)NC1CC2(CCN(CCN(C)C)CC2)c2ccccc21 (stereo unspecified)", -2.09),
    ("CCN(CCC(=O)OC)C(=O)c1cccc(Cn2nc(C)cc2C)c1", 4.14),
    ("O=C(Cc1csc(-c2ccco2)n1)N1CCN(c2ccccc2O)CC1", -4.66),
    ("Cc1ccc(-c2nnc(CN3CCc4nn(C)c(=O)cc4C3)o2)cc1", 3.35),
    ("CCN(CC)C(=O)N1CCN(C2=NCC(C)S2)CC1 (stereo unspecified)", -9.33),
    ("Cc1cc(CN2C[C@H]3CCC[C@@]3(COCc3csc(C)n3)C2)no1", -9.15),
]
